# test system: human DGKζ (Homo sapiens, UniProt Q13574)
# Construct: TVMV protease cleavage site (C); Hexa-His (C); made in house; host or cells: Sf9 insect cells (baculovirus, Bac-to-Bac)
# Sequence (Q13574 with tags, fused parts or gaps isoform Q13574-4): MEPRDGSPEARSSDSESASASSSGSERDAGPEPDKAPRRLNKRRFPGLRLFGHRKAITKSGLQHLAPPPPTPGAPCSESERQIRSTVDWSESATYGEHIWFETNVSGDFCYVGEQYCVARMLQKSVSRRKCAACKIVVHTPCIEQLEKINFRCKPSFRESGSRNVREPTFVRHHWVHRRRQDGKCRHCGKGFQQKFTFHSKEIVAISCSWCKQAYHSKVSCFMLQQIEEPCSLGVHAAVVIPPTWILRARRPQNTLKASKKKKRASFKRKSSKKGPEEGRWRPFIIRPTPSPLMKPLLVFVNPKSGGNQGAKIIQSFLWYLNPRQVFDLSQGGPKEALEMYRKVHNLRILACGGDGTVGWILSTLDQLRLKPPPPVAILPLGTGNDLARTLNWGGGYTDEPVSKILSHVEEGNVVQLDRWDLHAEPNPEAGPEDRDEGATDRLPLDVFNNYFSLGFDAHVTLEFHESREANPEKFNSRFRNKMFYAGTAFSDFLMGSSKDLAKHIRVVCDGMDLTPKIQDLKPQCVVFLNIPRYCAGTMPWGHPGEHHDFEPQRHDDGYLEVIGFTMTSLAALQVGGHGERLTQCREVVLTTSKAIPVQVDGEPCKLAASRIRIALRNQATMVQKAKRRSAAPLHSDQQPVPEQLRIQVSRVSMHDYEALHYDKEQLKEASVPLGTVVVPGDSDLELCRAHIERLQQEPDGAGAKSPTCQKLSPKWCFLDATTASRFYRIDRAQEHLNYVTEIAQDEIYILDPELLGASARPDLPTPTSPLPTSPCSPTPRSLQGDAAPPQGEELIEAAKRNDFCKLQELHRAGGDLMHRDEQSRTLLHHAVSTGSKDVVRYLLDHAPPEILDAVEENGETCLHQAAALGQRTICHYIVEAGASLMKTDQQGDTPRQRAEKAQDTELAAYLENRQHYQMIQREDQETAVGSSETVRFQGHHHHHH
# protocol: DGKζ LIPGLO assay (extruded liposome substrate), in vitro DGK inhibition
# Type: biochemical
# experimental parameters: liposome (LIPGLO) assay; read-out: DGKz LIPGLO IC50
pIC50: −log10 of the molar value.
endpoint name: pIC50

Some compounds with known pIC50 results, for comparison:
# compound, pIC50
rows = [
    ("CCC(c1cc(OC(F)(F)F)ccc1F)N1C[C@H](CC)N(c2cc(=O)n(C)c3ccc(C#N)nc23)C[C@H]1C (single isomer, unassigned) [Example 1381]", 5.68),
    ("C[C@@H]1CN(c2cc(=O)n(C)c3ccc(C#N)nc23)[C@@H](C)CN1C(c1ccc(Cl)cc1)c1ccc(F)cn1 (single isomer, unassigned) [Example 191]", 6.23),
    ("C[C@@H]1CN(c2c(Cl)c(=O)n(C)c3ccc(C#N)nc23)CCN1C(c1ccc(Cl)cc1)c1ccc(Cl)cc1", 6.09),
    ("C[C@@H]1CN(c2cc(=O)n(C)c3ccc(C#N)nc23)[C@@H](C)CN1C(c1ccc(F)cc1)c1ccc(C(F)F)cc1 (single isomer, unassigned) [Example 667]", 5.57),
]

a: Cc1ccc(C(c2cccc(F)n2)N2C[C@H](C)N(c3cc(=O)n(C)c4ccc(C#N)nc34)C[C@H]2C)cc1 (single isomer, unassigned) [Example 479]
b: C[C@@H]1CN(c2cc(=O)n(C)c3ccc(C#N)nc23)[C@@H](C)CN1C(c1ccc(F)cc1)C1CCCCO1 (single isomer, unassigned) [Example 359]
c: CC(c1ccc(C2CC2)cc1F)N1C[C@H](C)N(c2cc(=O)n(C)c3ccc(C#N)nc23)C[C@H]1C (single isomer, unassigned) [Example 1200]
d: Cn1c(=O)c(C#N)c(N2CCN(C(c3ccc(F)cc3)c3ccc(F)cc3)C(CO)C2)c2nc(Br)ccc21 (centres unmarked)
Problem: Rank ascending by pIC50. Write the labels, ordered according to the request.
Solution: d, a, b, c
(d: 4.72, a: 5.72, b: 5.96, c: 7.28)

1: C[C@@H]1CN(c2cc(=O)n(C)c3ccc(C#N)nc23)[C@@H](C)CN1C(c1ccc(Cl)cc1)c1ccc(C#N)cc1 (some centres unmarked)
2: COC(=O)[C@@H]1CN(c2cc(=O)n(C)c3ccc(C#N)nc23)CCN1C(c1ccc(F)cc1)c1ccc(F)cc1
Problem: For the two items 1 and 2 , which reports the higher pIC50 value? Which one? Tell me its label.
Solution: 2
(2: 5.92, 1: 5.62)

I: COCC1CN(c2cc(=O)n(C)c3ccc(C#N)nc23)CCN1C(c1ccc(F)cc1)c1ccc(F)cc1 (single isomer, unassigned) [Example 93]
II: CC[C@@H]1CN(c2cc(=O)n(C)c3ccc(C#N)nc23)[C@@H](C)CN1C(C)c1ccc(OC(C)C)cc1 (single isomer, unassigned) [Example 1349]
III: CC[C@H]1CN(C(C)c2ccc(F)cc2F)[C@H](CC)CN1c1cc(=O)n(C)c2ccc(C#N)nc12 (single isomer, unassigned) [Example 1055]
Problem: Rank ascending by pIC50. Write the labels, ordered according to the request.
Solution: II, I, III
